// provenance: patent US20240010721A1

target_of_assay: T1, human ROR1 (hROR1) on cells (human, UniProt Q01973 30-937)
T1 construct: whole, on cells; the cell line is named under assay; also called HEK293T-hROR1; 293T-hROR1
measurement_protocol: FACS, Panc-1 cells; also: test concentration or dose not given here
quantity_kind: MFI (MFI)
Write the answer as a number in MFI, unit excluded.

binder	unit_of_measure	MFI
PR002581 (antibody, human IgG1, kappa, V domains shown, PR001369 variant: VL S93A; hIgG1; also called anti-ROR1 1015M3-H10(L: S93A) hIgG1) VH: QVQLVESGGGVVQPGRSLRLSCAASGFTFSNYGIHWVRQAPGKGLEWVAIMWYDGSNTDYADSVKGRFTISRDTSKNTLFLQMNSLRAEDTAVYYCAREQARSFDLWGRGTLVTVSS VL: DIVMTQSPSTLSASVGDRVTITCRASQTINNWLAWYQQKPGKAPKLLIYKASSLESGVPSRFSGSGSGTEFTLTISSLQPDDFATYYCQQYNAYSPMYTFGQGTKVEIKR	MFI	3180
PR001369 (antibody, human IgG1, kappa, V domains shown, fully human IgG1, kappa; also called anti-ROR1 1015M3-H10 hIgG1; PR001369(WT)) VH: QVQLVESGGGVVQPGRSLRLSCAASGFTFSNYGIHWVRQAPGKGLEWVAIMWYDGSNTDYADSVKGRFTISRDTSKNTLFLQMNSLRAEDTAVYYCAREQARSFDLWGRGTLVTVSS VL: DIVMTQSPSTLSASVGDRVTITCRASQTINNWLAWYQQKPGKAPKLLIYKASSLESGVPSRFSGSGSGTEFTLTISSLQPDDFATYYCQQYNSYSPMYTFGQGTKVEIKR	MFI	6230
PR002569 (antibody, human IgG1, kappa, V domains shown, PR001354 variant: VH G55A, VL S93A; hIgG1; also called anti-ROR1 1015M2-C9(H: G55A; L: S93A) hIgG1) VH: QVQLVQSGGGVVQPGRSLRLSCAASGFTFSSYGMHWVRQAPGKGLEWVAIMWYDASDKDYADSVKGRFTISRDTSKNTLYLQMNSLRAEDTAVYYCAREQARSFDLWGRGTLVTVSS VL: DIVMTQSPSSLSASVGDRVTITCRASQTINNWLAWYQQKPGKAPKLLIYKASSLESGVPSRFSGSGSGTEFTLTISSLQPDDFATYYCQQYNAYSPMYTFGQGTKVEIKR	MFI	3760

Kindly note the recorded MFI for PR002570 (antibody, human IgG1, kappa, V domains shown, PR001356 variant: VH D54E; hIgG1; also called anti-ROR1 1015M2-E6(H: D54E) hIgG1) VH: QVQLVESGGGVVQPGRSLRLSCAASGFTFSSYGMHWVRQAPGKGLEWVAVAWYEGVSEDYADSVKGRFTISRDNAKNTLYLQMNSLRAEDTAVYYCAREQARSFDLWGRGTLVTVSS VL: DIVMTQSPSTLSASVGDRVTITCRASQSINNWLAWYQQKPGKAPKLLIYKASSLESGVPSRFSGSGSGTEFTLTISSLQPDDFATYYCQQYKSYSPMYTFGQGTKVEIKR , which is 3660

Record PR002566 (antibody, human IgG1, kappa, V domains shown, PR001354 variant: VH D54E, VL S93A; hIgG1; also called anti-ROR1 1015M2-C9(H: D54E; L: S93A) hIgG1) VH: QVQLVQSGGGVVQPGRSLRLSCAASGFTFSSYGMHWVRQAPGKGLEWVAIMWYEGSDKDYADSVKGRFTISRDTSKNTLYLQMNSLRAEDTAVYYCAREQARSFDLWGRGTLVTVSS VL: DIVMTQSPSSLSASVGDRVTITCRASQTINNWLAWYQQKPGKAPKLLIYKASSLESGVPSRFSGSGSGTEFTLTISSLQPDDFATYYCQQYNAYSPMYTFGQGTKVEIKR , field MFI: 4630
